This collection of values is drawn from PubChem BioAssay (NCI).

Test system: K-562 leukemia
Experiment: NCI-60 one-dose screen, 48 h
Settings: 10 µM unless noted
Protocol: Cells are grown in 96 well plates and exposed to the test compound for 48 hours. Compounds are tested at a single concentration, which is 10^-5 M for most compounds. The reported endpoint is percent growth (GI% or GIPRCNT), where numbers from 0 - 100% represent growth inhibition, and numbers from -100% - 0 represent cell death. For example, a value of 40 represents 60% growth inhibition. A value of 0 means no net growth occurred over the course of the experiment. […]
The panel holds about 83,000 compounds, 20% with a hit somewhere; the sample as a whole holds those more often. Active and inactive are the calls of the source. How the source made its calls: active means growth percent below 10; inactive means the rest.
API: response.call in active, inactive

O=C(Nc1ccccc1)c1ccco1 | inactive
CC(=O)c1cccc(N(C)S(=O)(=O)c2ccc(C)cc2)c1 | inactive
Cn1c2ccccc2c2nnc(NCCCCO)nc21 | inactive
CC1(C)OC2C(CO)OC(n3ccc(=O)[nH]c3=O)C2O1 (stereo unspecified) | inactive
CCN(C(=O)Nc1ccccc1Cl)c1ccccc1 | inactive
COc1cccc(N=CNc2cccc(OC)c2)c1 | inactive
c1ccc2[nH]c(Cc3nc4ccccc4[nH]3)nc2c1 | inactive
O=c1nc(Nc2cccc(Cl)c2)oc2cc(Cl)oc(=O)c12 | inactive
O=C(O)CSCC(=O)Nc1cc(C(F)(F)F)ccc1Cl | inactive
CC(=O)[C@@]1(O)CC[C@H]2[C@@H]3CC[C@@H]4CC(=O)CC[C@]4(C)[C@H]3[C@@H](O)C[C@@]21C | inactive

Query: Tell me the recorded outcome of this test for CCC12OC(COc3ccccc3)CN1CCN2c1ccccc1 (stereo unspecified) .
Reply: inactive

Query: Tell me the recorded outcome of this test for CCOC(C=O)OCC .
Reply: inactive

Query: Tell me the recorded outcome of this test for CC(=O)c1cccc(O)c1 .
Reply: inactive

Query: Tell me the recorded outcome of this test for CC(CO)(CO)C(=O)O .
Reply: inactive

Query: Tell me the recorded outcome of this test for CN(C)c1ccc2nc3ccc(=[N+](C)C)cc-3oc2c1 .
Reply: inactive

====

system: IGROV1 ovarian; experiment: NCI-60 one-dose screen, 48 h; conditions: 10 µM unless noted
The panel holds about 83,000 compounds, 20% with a hit somewhere; the sample as a whole holds those more often. Calls of active or inactive are those of the source. How the source made its calls: active means growth percent below 10; inactive means the rest.
API: response.call in true = active, false = inactive

Here are 3 compounds together with their reported answers.
O=CNCCc1ccccc1 | false
S=CN1CCCCC1 | false
O=C(CCCl)OCCOc1ccccc1 | false

Query: Tell me the recorded outcome of this test for Cc1cccnc1NC1OC(=O)c2ccccc21 (centres undefined) .
Reply: false

Query: Tell me the recorded outcome of this test for CC1(C)C2CCC1(C)C1(C2)OCCS1 (centres undefined) .
Reply: false

Query: Tell me the recorded outcome of this test for NC(=O)NCCO .
Reply: false

Query: Tell me the recorded outcome of this test for C=CCC(OC(C)=O)c1ccc(C(C)C)cc1 (centres undefined) .
Reply: false

Query: Tell me the recorded outcome of this test for Clc1cccc(Cl)c1C1CSc2ccccc2N=C1c1ccccc1 (centres undefined) .
Reply: false

Query: Tell me the recorded outcome of this test for Oc1cc2ccccc2c(-c2c(O)c(O)cc3ccccc23)c1O .
Reply: true

Query: Tell me the recorded outcome of this test for O=C(c1ccccc1)c1ccc(-c2ccc(O)cc2)cc1 .
Reply: false

Query: Tell me the recorded outcome of this test for Nc1ncnc2c1ncn2C1OC(CO)C2OC21 (centres undefined) .
Reply: false

Query: Tell me the recorded outcome of this test for COc1ccc(Br)c(C=O)c1 .
Reply: false

Query: Tell me the recorded outcome of this test for O=C(NCc1ccco1)Nc1cccc2c(NC(=O)NCc3ccco3)cccc12 .
Reply: false

Query: Tell me the recorded outcome of this test for CCCC1OC(c2ccco2)OCC1CC (centres undefined) .
Reply: false

====

test system: HCT-15 colon; assay: NCI-60 one-dose screen, 48 h (100 = growth as untreated, 0 = no growth, -100 = all killed); settings: 10 µM unless noted
The panel holds about 83,000 compounds, 20% with a hit somewhere; the sample as a whole holds those more often.
Endpoint Name: growth (%)
Numbers only, in %.

// known answers, use as guide
CN(C)Cc1ccccn1 | 105
CCOP(=O)(NC(c1ccccc1)c1ccccc1)OCC | 117
ClCc1cccc2c(CCl)cccc12 | 73.8

Provide growth for all items below, preserving their order.
1. COC1=C(OC)C(=O)C(SC/C=C(\C)CCCC(C)CCCC(C)CCCC(C)C)=CC1=O (centres undefined)
2. c1cc(CNCCNCc2ccncc2)ccn1
3. Nc1nc(N)nc(N2CCCCC2)n1
4. Nc1cccc2cccc(O)c12
5. CN1CCCN(C(c2ccccc2)c2ccc(Cl)cc2)CC1 (centres undefined)
6. COc1cccc(N=CNc2cccc(OC)c2)c1
7. CCCCCCCCCCCCCCCCCCSC(=N)N

Reply:
17.2
110
107
83
85.9
85.2
66.6

Provide growth for all items below, preserving their order.
1. CCN(CC)CCN1CNC(=S)NC1
2. CCCNS(=O)(=O)c1ccc(Cl)cc1
3. O=CNCCc1ccccc1
4. CC(C)c1ccccc1NC(=O)N1CCC(C(C)C)CC1
5. C[n+]1cc2cc3c(cc2c2ccccc21)OCO3

Reply:
[106, 99.6, 109, 110, 97.2]

Provide growth for all items below, preserving their order.
1. Cc1cc2c3ccc(C)[n+](C)c3ccc2n1C
2. COC(=O)c1cccc([N+](=O)[O-])c1
3. Cc1ccc(S(N)(=O)=O)cc1Cl
4. Cc1cc(Cl)cc(Cc2cc(Cl)cc(C)c2O)c1O
5. CN(C)c1ccc2c(N(C)C)cc(N(C)C)nc2c1
6. C=CC(C)(C)n1cc(C2=C(O)C(=O)C(c3cn(C(C)(C)C=C)c4ccccc34)=C(O)C2=O)c2ccccc21
7. CSCCC(NC(=O)C(Cl)Cl)C(=O)O (centres undefined)

Reply:
1: 104; 2: 105; 3: 104; 4: 12.4; 5: 92; 6: 84.2; 7: 102

Provide growth for all items below, preserving their order.
1. Oc1cccc(CNC2CCCCC2)c1
2. Cc1cc(C)cc(OCC(=O)O)c1
3. C=COC(=O)CCOCC(CC)CCCC (centres undefined)

Reply:
[105, 94.4, 104]

====

tested on: HS 578T breast; assay: NCI-60 one-dose screen, 48 h; conditions: 10 µM unless noted
About 83,000 compounds went through this panel and 20% of them were active in at least one assay; those are over-represented in the sample as a whole. Active and inactive are the calls of the source. How the source made its calls: active means growth percent below 10; inactive means the rest.
API: response.call in active, inactive

Here are 3 molecules together with their reported answers.
CC1CCC(C(C)(C)[N+](C)(C)C)CC1 (stereo unspecified) | inactive
N#C/C(=C\NC(=S)N=Nc1c(O)[nH]c2ccccc12)c1nc2ccccc2s1 | inactive
Cc1ccc(S(=O)(=O)Oc2ccc3sc4c(CO)ccc(NCCN(C)C)c4c(=O)c3c2)cc1 | active

Query: Tell me the recorded outcome of this test for CC(C)N(CCCC#N)C(C)C .
Reply: inactive

Query: Tell me the recorded outcome of this test for CCCc1cccc(CCC)c1NC(=O)Nc1cc(Cl)cc(Cl)c1 .
Reply: inactive

Query: Tell me the recorded outcome of this test for C1C[S+]2CC[S+]1CC2 .
Reply: inactive

Query: Tell me the recorded outcome of this test for OCC(O)COc1ccc(Cl)cc1Cl (stereo unspecified) .
Reply: inactive

Query: Tell me the recorded outcome of this test for O=C(N/N=C\c1ccc(Cl)cc1Cl)c1ccncc1 .
Reply: inactive

Query: Tell me the recorded outcome of this test for COC(=O)c1ccccc1C(=O)c1c(C)cc(C)cc1C .
Reply: inactive

Query: Tell me the recorded outcome of this test for Oc1cc(O)c2c(c1)O[C@H](c1ccc(O)c(O)c1)[C@@H](O)C2 .
Reply: inactive

Query: Tell me the recorded outcome of this test for CC(C)Sc1ncnc2nc[nH]c12 .
Reply: inactive

Query: Tell me the recorded outcome of this test for O=C(CC(CC(=O)c1ccccc1)c1ccccn1)c1ccccc1 .
Reply: inactive

Query: Tell me the recorded outcome of this test for COc1cc(N)c2ncccc2c1Cl .
Reply: inactive

Query: Tell me the recorded outcome of this test for O=Cc1ccc(O)c(O)c1 .
Reply: inactive

Query: Tell me the recorded outcome of this test for Cc1cc2nc(C)c(C)nc2cc1C .
Reply: inactive

Query: Tell me the recorded outcome of this test for CCOC(=O)c1ccc(C(C)(C)C)cc1 .
Reply: inactive

Query: Tell me the recorded outcome of this test for CCOC(=O)/C(O)=C(\C=N\C(=S)Nc1ccc(Cl)c(Cl)c1)C(=O)OCC .
Reply: inactive

Query: Tell me the recorded outcome of this test for CCOC(=O)C(CCC#N)(CCC#N)C(=O)OCC .
Reply: inactive

====

tested on: NCI-H322M lung; test: NCI-60 one-dose screen, 48 h (100 = growth as untreated, 0 = no growth, -100 = all killed); details: 10 µM unless noted
This is part of a sample that, as a whole, favours compounds with a hit. Of some 83,000 tested, about 20% had one in any assay.
Endpoint Name: growth (%)
Numbers only, in %.

// known answers, use as guide
O=Cc1ccc(Cl)c(Cl)c1 | 106
NC(=O)OCCO | 97
Cc1cc(=O)n(Nc2ccccc2)c(O)c1C#N | 92.4
Cc1cc2c3ccc(C)[n+](C)c3ccc2n1C | 99.5
Nc1cc2ccccc2c(O)c1O | 89.1
CCOC(=O)C1(N)CCCCC1 | 107

Provide growth for all items below, preserving their order.
1. CCOC(=O)/C(C#N)=C\c1c[nH]c2ccccc12
2. CC(=O)NNC(=S)N/C=C/c1c(C)ccc([N+](=O)[O-])c1[N+](=O)[O-]

Reply:
1: 110; 2: 111

Provide growth for all items below, preserving their order.
1. Nc1nnc2cc(F)ccc2n1
2. C=C(C)[C@@H]1CC[C@]2(CO)CC[C@]3(C)[C@H](CC[C@@H]4[C@@]5(C)CC[C@H](O)C(C)(C)[C@@H]5CC[C@]43C)[C@@H]12
3. CC(=O)Nc1ccc(/C=C2\SC(=S)N(/C=C(\C(C)=O)C(N)=O)C2=O)cc1
4. Nc1ccc2c(c1)Cc1cc(N)c(N)cc1-2

Reply:
1: 106; 2: 68.9; 3: 102; 4: 92

Record Cc1cc(CO)c(O)c(CO)c1 . Reported growth: 98.7
